Attribution: the supplement of paper PMC8253809

- Test system: HGGX6 (H3.3 G34R paediatric high-grade glioma line)
- method: area under dose-response curve of % growth inhibition (log2 RLU vs DMSO / staurosporine), 1e-11 to 1e-4 M (% x log10 M); higher = more growth inhibition
Assign true to entries whose area under dose-response curve meets or exceeds 50; assign false to the rest.

1. CCC1(c2ccc(N)cc2)CCC(=O)NC1=O (stereo not given) [AMINOGLUTETHIMIDE] ... false
2. N=C(N)c1ccc(OCCCCCOc2ccc(C(=N)N)cc2)cc1 ... false
3. CN1[C@@H]2CC[C@H]1C[C@@H](OC(=O)c1c[nH]c3ccccc13)C2 ... false
4. CC[C@H](CC#N)OC(=O)N[C@@H](C)c1cccc(NC(=O)Nc2ccc(-c3cnco3)c(OC)c2)c1 ... false
5. Cc1ccc(Nc2nccc(N(C)c3ccc4c(C)n(C)nc4c3)n2)cc1S(N)(=O)=O ... false
6. CC[C@]1(O)C[C@H]2CN(CCc3c([nH]c4ccccc34)[C@@](C(=O)OC)(c3cc4c(cc3OC)N(C=O)[C@H]3[C@@](O)(C(=O)OC)[C@H](OC(C)=O)[C@]5(CC)C=CCN6CC[C@]43[C@@H]65)C2)C1 ... true
7. COc1cc(OC2CCN(C)CC2)ccc1Nc1ncc2c(n1)n(C1CCCC1)c(=O)n2C ... true
8. O=C(/C=C\n1cnc(-c2cc(C(F)(F)F)cc(C(F)(F)F)c2)n1)NNc1cnccn1 [SELINEXOR] ... true
9. Nc1c2ccccc2nc2ccccc12 ... true
10. COc1ncc(-c2ccc3nccc(-c4ccnnc4)c3c2)cc1NS(=O)(=O)c1ccc(F)cc1F ... true
